Molecular target: EGFR (Homo sapiens, UniProt P00533)
Construct: endogenous in cells; host or cells: A431 cells (ATCC CRL-1555)
Sequence (P00533 25-1210): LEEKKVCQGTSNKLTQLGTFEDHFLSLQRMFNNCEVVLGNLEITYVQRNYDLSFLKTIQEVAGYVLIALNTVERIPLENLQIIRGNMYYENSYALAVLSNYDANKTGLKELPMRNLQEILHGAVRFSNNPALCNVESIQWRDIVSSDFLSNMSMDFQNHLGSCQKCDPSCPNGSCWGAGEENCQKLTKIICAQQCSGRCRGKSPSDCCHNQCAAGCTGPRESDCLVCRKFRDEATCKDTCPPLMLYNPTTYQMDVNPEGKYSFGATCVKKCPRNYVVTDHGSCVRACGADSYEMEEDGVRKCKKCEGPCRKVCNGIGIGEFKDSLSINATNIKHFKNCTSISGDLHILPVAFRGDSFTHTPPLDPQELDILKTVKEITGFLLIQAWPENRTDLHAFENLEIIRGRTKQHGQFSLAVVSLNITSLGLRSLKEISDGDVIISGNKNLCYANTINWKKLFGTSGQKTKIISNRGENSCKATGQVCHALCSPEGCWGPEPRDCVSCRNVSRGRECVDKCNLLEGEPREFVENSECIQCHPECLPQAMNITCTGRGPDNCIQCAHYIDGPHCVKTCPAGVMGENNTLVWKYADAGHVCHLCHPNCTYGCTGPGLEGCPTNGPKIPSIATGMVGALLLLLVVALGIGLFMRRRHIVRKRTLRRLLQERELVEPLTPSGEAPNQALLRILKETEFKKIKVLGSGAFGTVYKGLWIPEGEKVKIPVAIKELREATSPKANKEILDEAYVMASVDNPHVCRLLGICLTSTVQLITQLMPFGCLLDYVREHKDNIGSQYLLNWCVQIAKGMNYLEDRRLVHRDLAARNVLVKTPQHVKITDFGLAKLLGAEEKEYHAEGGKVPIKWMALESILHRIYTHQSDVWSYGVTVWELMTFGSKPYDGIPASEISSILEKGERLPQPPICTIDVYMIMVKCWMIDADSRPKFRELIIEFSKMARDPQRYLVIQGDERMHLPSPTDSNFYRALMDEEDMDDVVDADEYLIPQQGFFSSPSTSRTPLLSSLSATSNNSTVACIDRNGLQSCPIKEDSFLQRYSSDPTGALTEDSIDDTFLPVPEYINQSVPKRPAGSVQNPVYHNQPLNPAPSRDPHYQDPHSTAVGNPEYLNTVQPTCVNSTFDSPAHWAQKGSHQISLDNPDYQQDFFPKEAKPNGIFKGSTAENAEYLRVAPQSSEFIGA
Test: EGFR in-cell Western (ICW) screening protocol
Type: cell-based
Set-up: unit not given here
Settings: re-test
Hi there, I'd appreciate the recorded ICW Re-Test for every entry that follows.

Example compounds with recorded ICW Re-Test:
Compound	Test Result
COc1ccc(C(NC(=O)C2CCCCC2)c2cc([N+](=O)[O-])c3cccnc3c2O)cc1OC (stereo not drawn)	72.45
O=[N+]([O-])c1cccc(C(Nc2cccnc2)c2cc(Cl)c3cccnc3c2O)c1 (stereo not drawn)	42.98
CCOc1ccc(C(Nc2ccccn2)c2cc(Cl)c3cccnc3c2O)cc1 (stereo not drawn) [compound 10101]	7.53
C=CCOc1cccc(C(Nc2cc(C)ccn2)c2ccc3cccnc3c2O)c1 (stereo not drawn)	21.02
Cc1ccc(C)c(C(Nc2cccnc2)c2cc(Cl)c3cccnc3c2O)c1 (stereo not drawn)	67.75
Cc1ccnc(NC(c2ccc(O)cc2)c2ccc3ccc(C)nc3c2O)c1 (stereo not drawn)	29.99

Parameter requested: ICW Re-Test. Apply to each item below.
1. Cc1cccc(NC(c2cccnc2)c2ccc3cccnc3c2O)n1 (stereo not drawn)
2. Oc1c(C(Nc2cccc(Cl)c2)c2cccnc2)ccc2cccnc12 (stereo not drawn)
3. COc1ccc(C(Nc2ccccn2)c2ccc3cccnc3c2O)cc1 (stereo not drawn)

[34.86, 73.29, 30.44]

====

Molecular target: EGFR (Homo sapiens, UniProt P00533)
Construct: endogenous in cells; host or cells: A431 cells (ATCC CRL-1555)
Test: EGFR in-cell Western (ICW) screening protocol
Type: cell-based
Design: unit not given here
Settings: re-test
Hi there, I'd appreciate the recorded ICW Re-Test for every entry that follows.
One number for each entry.

Compound	ICW Re-Test
Cc1ccnc(NC(c2ccccn2)c2ccc3cccnc3c2O)c1 (stereo not drawn)	33.81
CCOc1ccc(C(Nc2cccnc2)c2cc(Cl)c3cccnc3c2O)cc1 (stereo not drawn)	81.41
COc1ccc(C(Nc2cc(C)ccn2)c2ccc3cccnc3c2O)cc1OC (stereo not drawn)	39.58

Parameter requested: ICW Re-Test. Apply to each item below.
1. COC(=O)c1ccc(NC(c2cccs2)c2ccc3cccnc3c2O)cc1 (stereo not drawn)
2. Oc1c(C(Nc2ccccn2)c2ccsc2)ccc2cccnc12 (stereo not drawn)
3. COc1ccc(C(Nc2ccccn2)c2ccc3cccnc3c2O)cc1OC (stereo not drawn)
4. CCOc1ccc(C(Nc2ccccn2)c2ccc3cccnc3c2O)cc1O (stereo not drawn)
5. CCOc1ccc(C(Nc2cc(C)ccn2)c2ccc3cccnc3c2O)cc1OCC (stereo not drawn)
6. Oc1c(C(Nc2ccccn2)c2cccnc2)cc(Cl)c2cccnc12 (stereo not drawn)

57.97
39.03
51.72
62.77
27.18
53.58

====

Tested on: MDBK line
Assay: MTT Cell Proliferation Assay, MDBK line
Assay type: cell-based, bovine
Details: Bos taurus, MDBK, 72 h; second value of A431/MDBK pair; read-out: MTT-72 h MDBK
Use IC50 to assign classes; range list: lower level: < 6 µM; middle level: ≥ 6 µM and < 10 µM; upper level: ≥ 10 µM

Reference set, count: 8
Compound	Class
Cc1cccc(NC(c2ccc(O)cc2)c2ccc3ccc(C)nc3c2O)n1 (stereo not shown)	upper level
CC(=O)Nc1ccc(NC(c2ccccn2)c2ccc3cccnc3c2O)cc1 (stereo not shown)	middle level
CC(C)C(=O)NC(c1cccs1)c1cc([N+](=O)[O-])c2cccnc2c1O (stereo not shown)	lower level
CCCC(=O)NC(c1ccc(OC)c(OC)c1)c1cc(Cl)c2cccnc2c1O (stereo not shown)	lower level
Oc1c(C(c2ccccn2)N2CCN(Cc3ccccc3)CC2)ccc2cccnc12 (stereo not shown)	middle level
Cc1cccc(NC(c2ccccn2)c2ccc3ccc(C)nc3c2O)n1 (stereo not shown)	upper level
COc1ccc(Cl)cc1C(Nc1ccccn1)c1cc(Cl)c2cccnc2c1O (stereo not shown)	lower level
COc1ccc(C(Nc2cc(C)ccn2)c2ccc3cccnc3c2O)cc1O (stereo not shown)	upper level

Category lookup for the compound Oc1c(C(Nc2nccs2)c2cccs2)ccc2cccnc12 (stereo not shown)
lower level

Category lookup for the compound Cc1ccnc(NC(c2ccccn2)c2ccc3cccnc3c2O)c1 (stereo not shown)
middle level

Category lookup for the compound Cc1ccc2ccc(C(Nc3ccccn3)c3ccc(O)cc3)c(O)c2n1 (stereo not shown)
upper level

Category lookup for the compound Oc1c(C(Nc2ccc(OC(F)F)cc2)c2ccccn2)ccc2cccnc12 (stereo not shown)
upper level

====

Hi there, I'd appreciate the recorded Vd for every entry that follows.
Experiment: Pharmacokinetics, intravenous and oral dose
Design: species or system male CD-1 mice
Settings: mouse, in vivo, iv, 1 mg/kg, male CD-1 mice
Give bare numbers, in L/kg.

Compound	Vd / L/kg
Cc1cc(Cl)cnc1NC(c1ccc(Cl)cc1Cl)c1ccc2cccnc2c1O (centres unmarked)	3.24

Could you now look at the following compound, please?
Sample Cc1c(Cl)cnc(NC(c2cccc(Cl)c2Cl)c2ccc3cccnc3c2O)c1F (centres unmarked) — what was its Vd?
0.56

====

Hi there, I'd appreciate the recorded pIC50 for every entry that follows.
Tested on: MDBK line
Assay: MTT Cell Proliferation Assay, MDBK line
Assay type: cell-based, bovine
Details: Bos taurus, MDBK, 72 h; second value of A431/MDBK pair; read-out: MTT-72 h MDBK
Give bare numbers, as −log10 of the molar value.

Example compounds with recorded pIC50:
Compound	Measured Endpoint	Test Result
Cc1cccc(NC(c2ccc3c(c2)OCO3)c2ccc3cccnc3c2O)n1 (stereo not drawn)	pIC50	5.28
Cc1ccc2ccc(C(Nc3ccccn3)c3ccc(C)s3)c(O)c2n1 (stereo not drawn)	pIC50	4.36
Cc1ccc(NC(c2ccccc2O)c2ccc3cccnc3c2O)nc1 (stereo not drawn)	pIC50	5.25
Cc1cccc(NC(c2ccc(Cl)cc2)c2ccc3cccnc3c2O)n1 (stereo not drawn)	pIC50	5.23
Cc1cccc(NC(c2ccncc2)c2ccc3cccnc3c2O)n1 (stereo not drawn)	pIC50	5.32
CCOc1ccc(C(Nc2cc(C)ccn2)c2ccc3cccnc3c2O)cc1OC (stereo not drawn)	pIC50	5.45
CCOc1cc(C(Nc2cc(C)ccn2)c2ccc3ccc(C)nc3c2O)ccc1O (stereo not drawn)	pIC50	4.97
C=CCOc1cccc(C(Nc2ccccn2)c2ccc3cccnc3c2O)c1 (stereo not drawn)	pIC50	5.27

Could you now look at the following compound, please?
Sample CCOc1cc(C(Nc2cccnc2)c2ccc3cccnc3c2O)ccc1O (stereo not drawn) — what was its pIC50?
5.25

====

Tested on: MDBK line
Assay: MTT Cell Proliferation Assay, MDBK line
Format: cell-based, bovine
Details: Bos taurus, MDBK, 72 h; second value of A431/MDBK pair; read-out: MTT-72 h MDBK
Measured Endpoint: IC50 (µM)
Give bare numbers, in µM.

Compound	IC50 (µM)
Cc1ccnc(NC(c2cc(C)ccc2O)c2ccc3cccnc3c2O)c1 (centres unmarked)	5.42
Cc1ccc2ccc(C(Nc3ccccn3)c3sccc3C)c(O)c2n1 (centres unmarked)	9.67
Cc1ccnc(NC(c2ccc(O)cc2)c2ccc3ccc(C)nc3c2O)c1 (centres unmarked)	25.8

Parameter requested: IC50. Apply to each item below.
1. COC(=O)c1ccc(NC(c2cccs2)c2ccc3cccnc3c2O)cc1 (centres unmarked)
2. Oc1cc2cccnc2cc1C(Nc1ccccn1)c1cccs1 (centres unmarked)

1. 3.87
2. 22.1

====

Test: Stability on incubation with human liver microsomes (HLM)
Format: in vitro ADME
Conditions: percentage left after incubation with human liver microsomes for 30 minutes
# if measured HLM % Remaining@ 30 Min < 90%: TRUE  # else: FALSE

Molecule	Class
Cc1nc(NC(c2ccc(Cl)cc2Cl)c2ccc3cccnc3c2O)c(Cl)cc1Cl (centres unmarked)	FALSE
Cc1cc(Cl)cnc1NC(c1cc(C(F)(F)F)ccc1Cl)c1ccc2cccnc2c1O (centres unmarked)	TRUE
Cc1ccc2c(C)nc(Nc3nc(-c4ccccc4C)cc(=O)[nH]3)nc2c1	TRUE
Oc1c(C(Nc2cc(Cl)ccn2)c2ccc(F)cc2F)ccc2cccnc12 (centres unmarked)	TRUE
Oc1c(C(Nc2ncc(Cl)cc2F)c2ccc(Cl)cc2Cl)ccc2cccnc12 (centres unmarked)	FALSE
Cc1cc(NC(c2cccc(Cl)c2Cl)c2ccc3cccnc3c2O)ncc1Cl (centres unmarked)	FALSE

Shifting focus to the molecule that follows.
Hello, is HLM % Remaining@ 30 Min of the following molecule strictly smaller than 90%? Oc1c(C(Nc2ccc(C(F)(F)F)nc2)c2ccc(C(F)(F)F)c(F)c2)ccc2cccnc12 (centres unmarked)
TRUE

====

Hi there, I'd appreciate the recorded HLM % Remaining@ 30 Min for every entry that follows.
Assay: Stability on incubation with human liver microsomes (HLM)
Type: in vitro ADME
Conditions: percentage left after incubation with human liver microsomes for 30 minutes
In your response, the unit should come after the numeric value.

Example compounds with recorded HLM % Remaining@ 30 Min:
Compound	HLM % Remaining@ 30 Min
Cc1cccc(NC(c2cc(Cl)cc(Cl)c2)c2ccc3ccc(C)nc3c2O)n1 (stereo not drawn) [AD4-13075]	64%
Cc1cc(Cl)cnc1NC(c1ccc(C(F)(F)F)cc1)c1ccc2cccnc2c1O (stereo not drawn) [AD4-13041]	100%
Cc1cccc(NC(c2ccc(C(F)(F)F)cc2)c2ccc3cccnc3c2O)n1 (stereo not drawn) [AD4-10628]	45%
Oc1c(C(Nc2ccc(F)cn2)c2cc(Cl)cc(Cl)c2Cl)ccc2cccnc12 (stereo not drawn) [AD4-13132]	98%

Parameter requested: HLM % Remaining@ 30 Min. Apply to each item below.
1. Cc1ccc2ccc(C(Nc3ncc(Cl)cc3C)c3ccc(Cl)cc3Cl)c(O)c2n1 (stereo not drawn) [AD4-13200]
2. Cc1cccc(NC(c2ccc(F)cc2Cl)c2ccc3cccnc3c2O)n1 (stereo not drawn) [AD4-13024]
3. Cc1cccc(NC(c2cc(Cl)cc(Cl)c2)c2ccc3cccnc3c2O)n1 (stereo not drawn) [AD4-12913]
4. Cc1cc(Cl)cnc1NC(c1cccc(Cl)c1Cl)c1ccc2cccnc2c1O (stereo not drawn) [AD4-13147]
5. Oc1c(C(Nc2ccc(F)cn2)c2ccc(C(F)(F)F)c(F)c2)ccc2cccnc12 (stereo not drawn) [AD4-13061]
6. Cc1cccc(NC(c2ccc(Cl)c(Cl)c2)c2ccc3cccnc3c2O)n1 (stereo not drawn) [AD4-12916]
7. Cc1cc(Cl)cnc1NC(c1ccc(F)cc1F)c1ccc2cccnc2c1O (stereo not drawn) [AD4-13068]

["94%", "47%", "61%", "98%", "93%", "80%", "96%"]

Sample Cc1cccc(NC(c2cc(Cl)ccc2Cl)c2ccc3cccnc3c2O)n1 (stereo not drawn) [AD4-12955] — what was its HLM % Remaining@ 30 Min?
61%
